# STUDY_SYSTEM: T1, Her2 ECD (amino acids 1 to 629 of matured HER2 with C-terminal avi-tag and His-tag) (human, UniProt P04626 23-652)
# T1 construct: also called purified Her2
# EXPERIMENTAL_PROTOCOL: SPR, Ab captured, Her2 analyte;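 also: ProteOn XPR36 SPR, rate constants from simultaneous fit of association and dissociation sensorgrams to a 1:1 Langmuir model, buffer-channel referenced, KD taken as koff/kon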
MEASURED_PARAMETER: kon (M⁻¹ s⁻¹)
Numbers only here, please. The scale is M⁻¹ s⁻¹.

Example binders with recorded kon:
BINDER	RESULT_UNIT	MEASUREMENT
Pertuzumab HC x Pertuzumab (Tras.L3) T56S LC (antibody, V domains shown) VH: EVQLVESGGGLVQPGGSLRLSCAASGFTFTDYTMDWVRQAPGKGLEWVADVNPNSGGSIYNQRFKGRFTLSVDRSKNTLYLQMNSLRAEDTAVYYCARNLGPSFYFDYWGQGTLVTVSS VL: DIQMTQSPSSLSASVGDRVTITCKASQDVSIGVAWYQQKPGKAPKLLIYSASYRYSGVPSRFSGSGSGTDFTLTISSLQPEDFATYYCQQHYTTPPTFGQGTKVEIK	M⁻¹ s⁻¹	443000
Pertuzumab HC x Pertuzumab (Tras.L3) T94Y LC (antibody, V domains shown) VH: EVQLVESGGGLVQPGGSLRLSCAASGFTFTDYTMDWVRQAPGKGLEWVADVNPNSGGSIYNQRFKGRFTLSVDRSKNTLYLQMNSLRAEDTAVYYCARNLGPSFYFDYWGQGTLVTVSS VL: DIQMTQSPSSLSASVGDRVTITCKASQDVSIGVAWYQQKPGKAPKLLIYSASYRYTGVPSRFSGSGSGTDFTLTISSLQPEDFATYYCQQHYTYPPTFGQGTKVEIK	M⁻¹ s⁻¹	805000

We next turn to a different binder, shown below.
get_value(item= Pertuzumab HC x Pertuzumab (Tras.L3) I31V LC (antibody, V domains shown) VH: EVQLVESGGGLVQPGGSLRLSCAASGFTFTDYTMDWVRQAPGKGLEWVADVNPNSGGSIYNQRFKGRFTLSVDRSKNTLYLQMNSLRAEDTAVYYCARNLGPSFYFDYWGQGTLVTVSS VL: DIQMTQSPSSLSASVGDRVTITCKASQDVSVGVAWYQQKPGKAPKLLIYSASYRYTGVPSRFSGSGSGTDFTLTISSLQPEDFATYYCQQHYTTPPTFGQGTKVEIK , readout=kon) returns 440000
